Recorded values, source patent US20170247475A1.

Items are presented alongside their recorded IC50.
- assayed_target: T1, recombinant human VEGF165 (human, UniProt P15692-4 27-191)
- T1 construct: also called hVEGF165; rhVEGF165
- T1 sequence (P15692 other isoform, or with tags, fused parts or gaps limits assumed): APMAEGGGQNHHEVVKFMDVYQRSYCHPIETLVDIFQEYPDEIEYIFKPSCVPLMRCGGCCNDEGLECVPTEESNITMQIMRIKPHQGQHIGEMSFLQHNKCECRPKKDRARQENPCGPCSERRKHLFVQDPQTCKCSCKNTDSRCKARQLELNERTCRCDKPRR
- experimental_protocol: VEGF165/VEGFR2 AlphaScreen
property: IC50 (nM)

1. VEGFBII23B04 (VHH, also called VEGFBII23B4; VEGFBII23B04 (wt)) VHH: EVQLVESGGGLVQTGDSLRLSCEVSGRTFSSYSMGWFRQAQGKEREFVVAISKGGYKYDSVSLEGRFTISKDNAKNTVYLQINSLKPEDTAVYYCASSRAYGSSRLRLADTYEYWGQGTQVTVSS: 0.169
2. VEGFBII113E03 (VHH) VHH: EVQLVESGGGLVQTGDSLRLSCEVSGRTFSSYSMGWFRQAQGKEREFVVAISKGGYKYDSVSLEGRFTISKDNAKNTVYLQMNSLRPEDTAVYYCASSRAYGSSRLRLADTYEYWGQGTLVTVSS: 0.29
3. VEGFBII114D02 (VHH) VHH: EVQLVESGGGLVQTGGSLRLSCEVSGRTFSSYSMGWFRQAPGKEREFVVAISKGGYKYDSVSLEGRFTISRDNAKNTVYLQINSLRPEDTAVYYCASSRAYGSSRLRLADTYEYWGQGTLVTVSS: 0.199
4. VEGFBII111D05 (VHH) VHH: EVQLVESGGGLVQTGGSLRLSCEASGRTFSSYSMGWFRQAPGKEREFVVAISKGGYKYDSVSLEGRFTISRDNAKNTVYLQINSLRPEDTAVYYCASSRAYGSSRLRLADTYEYWGQGTLVTVSS: 0.209
